read-out: Cytochrome P450 2C19 (Homo sapiens) (UniProt P33261); assay: LTEA_HepaRG_CYP2C19: Life Technologies and Expression Analysis (LTEA) Assay for CYP2C19 using HepaRG (AID 2283482); details: mRNA level, 48 h; actives raise or lower the signal
Sequence (P33261 whole entry, looked up): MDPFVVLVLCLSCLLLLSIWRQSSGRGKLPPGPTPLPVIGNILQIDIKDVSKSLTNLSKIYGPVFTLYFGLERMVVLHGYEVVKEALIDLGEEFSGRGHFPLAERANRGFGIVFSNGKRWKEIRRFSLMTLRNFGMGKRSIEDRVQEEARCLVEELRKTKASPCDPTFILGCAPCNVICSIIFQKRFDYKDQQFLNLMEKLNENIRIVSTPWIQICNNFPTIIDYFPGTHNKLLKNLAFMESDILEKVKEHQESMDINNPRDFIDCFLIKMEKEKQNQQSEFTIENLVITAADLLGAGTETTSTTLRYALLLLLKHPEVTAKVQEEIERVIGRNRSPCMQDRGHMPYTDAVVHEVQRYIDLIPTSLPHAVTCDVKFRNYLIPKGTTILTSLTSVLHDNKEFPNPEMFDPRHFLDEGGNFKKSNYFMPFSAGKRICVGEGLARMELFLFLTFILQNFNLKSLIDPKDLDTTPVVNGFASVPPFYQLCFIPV
Activity calls are given as the source filed them. Rule for the calls: active = hit-call score of the fitted dose curve at least 0.9, where 1 is the maximum; inactive = score below 0.9.
Possible outcomes: 1 for active, 0 for inactive

- compound: "ClC1=C(Cl)C(Cl)(Cl)C(Cl)=C1Cl"
  label-class: 0
- compound: "c1ccc2cc3c(ccc4ccccc43)cc2c1"
  label-class: 1
- compound: "c1ccc2c(c1)Cc1ccccc1-2"
  label-class: 0
- compound: "CN1CCC[C@H]1c1cccnc1"
  label-class: 0
- compound: "CC(=O)NC1(c2cccc(F)c2)CCN(CC[C@@]2(c3ccc(Cl)c(Cl)c3)CN(c3ccccc3)C(=O)CO2)CC1"
  label-class: 0
- compound: "OC1CCCCC1"
  label-class: 0
- compound: "CCCOc1sc(C(=O)N2CCC(c3cc(CN)ccc3F)CC2)c(C)c1Br"
  label-class: 0
- compound: "O=C(O)Cc1cc(I)c(Oc2cc(I)c(O)c(I)c2)c(I)c1"
  label-class: 1
- compound: "CCCCCCC(=O)O"
  label-class: 0
- compound: "Cc1cc(CCN2CCN(c3nsc4ccccc34)CC2)cc2c1NC(=O)CC2(C)C"
  label-class: 1
- compound: "c1ccc2c(c1)ccc1ccccc12"
  label-class: 1
- compound: "CCCCCCCCC(=O)O"
  label-class: 0
- compound: "CCCCCCCCCCCCc1ccccc1S(=O)(=O)O"
  label-class: 1
- compound: "COc1ccc([N+](=O)[O-])cc1N"
  label-class: 0
- compound: "CCCCC(CC)COC(=O)CCCCC(=O)OCC(CC)CCCC (configuration not stated)"
  label-class: 0
- compound: "CC[C@H](c1ccc(O)cc1)[C@@H](CC)c1ccc(O)cc1"
  label-class: 1
- compound: "Oc1cccc(O)c1"
  label-class: 0
- compound: "COCC(C)OCC(C)O (configuration not stated)"
  label-class: 0
- compound: "CC[C@H](C)[C@@H](C(=O)O)n1sc2ccccc2c1=O"
  label-class: 0
- compound: "CC(C)(C)CC(C)(C)c1ccc(O)c(-n2nc3ccccc3n2)c1"
  label-class: 1
- compound: "CCCCCCCCCCCCCCCS(=O)(=O)Oc1ccccc1"
  label-class: 1
- compound: "CCCCOCCO"
  label-class: 0
- compound: "OCCC(F)(F)C(F)(F)C(F)(F)C(F)(F)C(F)(F)C(F)(F)C(F)(F)C(F)(F)F"
  label-class: 0
- compound: "CCC(=C(c1ccc(O)cc1)c1ccc(OCCN(C)C)cc1)c1ccccc1"
  label-class: 1
- compound: "CC(O)CO (configuration not stated)"
  label-class: 0
- compound: "C#C[C@]1(O)CC[C@H]2[C@@H]3CCC4=CC(=O)CC[C@@H]4[C@H]3CC[C@@]21C"
  label-class: 1
- compound: "O=c1c(-c2ccc(O)cc2)coc2cc(O)ccc12"
  label-class: 0
- compound: "O=C(O)c1ccccc1C(c1ccc(O)cc1)c1ccc(O)cc1"
  label-class: 0
- compound: "N#C[C@@H]1CC(F)(F)CN1C(=O)CNC1CC2CCC(C1)N2c1ncccn1 (some centres not stated)"
  label-class: 1
- compound: "CCCCC(CC)COC(=O)CCCCC(=O)OCc1ccccc1 (configuration not stated)"
  label-class: 0
- compound: "CCCCCCCCCCCCN1CCCC1=O"
  label-class: 0
- compound: "CCCCCCCCOC(=O)CCCCCCCCC(=O)OCCCCCCCC"
  label-class: 0
- compound: "CC(C)CCCCCCOC(=O)CCCCC(=O)OCCCCCCC(C)C"
  label-class: 0
- compound: "O=C(OCCOCCOC(=O)c1ccccc1)c1ccccc1"
  label-class: 0
- compound: "CCOC(=O)CC(O)(CC(=O)OCC)C(=O)OCC"
  label-class: 0
- compound: "Oc1cc2ccccc2c2ccccc12"
  label-class: 0
- compound: "CC#C[C@]1(O)CC[C@H]2[C@@H]3CCC4=CC(=O)CCC4=C3[C@@H](c3ccc(N(C)C)cc3)C[C@@]21C"
  label-class: 1
